Kd: recorded values
target: D614G Spike (SARS-CoV-2, UniProt P0DTC2 16-1213)
Kindly answer with a numeric value in pM, unit omitted.

{"columns": ["binder", "resultUnits", "Kd"],
 "data": [
  ["RBD-R3-E1-B3 Ab (Ab_32) (scFv, V domains shown) VH: QVQLVQSGAEVKKPGESLKISCKGSGYSFTSYWIGWVRQMPGKGLEWMGIIYPGDSDTRYSPSFQGQVTISADKSISTAYLQWSSLKASDTAMYYCARGWQWHDYWGQGTLVTVSS VL: QTVVTQEPAVSVALGQTVRITCQGDSLRSYYASWYQQKPGQAPVLVVYDKDKRPSGIPDRFSGSTSGNTASLTITGAQAEDEADYYCNSRDRSDNHVVFGGGTKLTVL", "pM", 7.26],
  ["Ab_19 (scFv, V domains shown) VH: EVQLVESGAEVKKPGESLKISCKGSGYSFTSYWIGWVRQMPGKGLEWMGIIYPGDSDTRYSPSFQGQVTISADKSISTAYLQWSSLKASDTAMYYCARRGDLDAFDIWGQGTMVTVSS VL: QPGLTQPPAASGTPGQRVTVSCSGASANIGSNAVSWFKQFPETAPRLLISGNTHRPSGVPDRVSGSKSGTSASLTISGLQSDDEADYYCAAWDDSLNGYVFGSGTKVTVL", "pM", 10.9]
]}

With those in mind, consider the next binder.
Problem: Requested field: Kd. Item: S1-RBD-R3-T1-E2 (Ab7) (scFv, V domains shown) VH: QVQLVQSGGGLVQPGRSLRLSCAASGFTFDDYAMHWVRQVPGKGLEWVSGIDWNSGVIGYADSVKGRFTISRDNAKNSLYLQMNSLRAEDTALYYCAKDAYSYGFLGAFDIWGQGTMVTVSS VL: QPGLTQPPSVSVAPGQTARISCGGNNIGSKSVHWYQQKPGRAPVLVVYEDRGRPSGIPERFSGSNSGNTATLTVSRVEAGDEADYYCQVWDGDSDHYVFATGTKVSIL
Solution: 2.74
